Tested on: production of amyloid beta protein Aβ(1-42) in human WT-APP overexpressing CHO cells
condition-summary: read-out: Aβ 42 IC50; Geometric mean of 2-8 determinations; human WT-APP overexpressing CHO cells
pIC50: −log10 of the molar value.
quantity-measured: pIC50

- molecule: "COc1cc(C(=O)NCCc2c[nH]c3ccc(C)cc23)ccc1-n1cnc(C)c1"
  subject-of-test: "production of amyloid beta protein Aβ(1-42) in human WT-APP overexpressing CHO cells"
  quantity-measured: "pIC50"
  experimental-value: 6.20
- molecule: "COc1cc(C(=O)NCC2CCc3ccccc3C2)ccc1-n1cnc(C)c1 (centres unmarked)"
  subject-of-test: "production of amyloid beta protein Aβ(1-42) in human WT-APP overexpressing CHO cells"
  quantity-measured: "pIC50"
  experimental-value: 6.11
- molecule: "COc1cc(C(=O)NC(C)COc2c(C)cccc2C)ccc1-n1cnc(C)c1 (centres unmarked)"
  subject-of-test: "production of amyloid beta protein Aβ(1-42) in human WT-APP overexpressing CHO cells"
  quantity-measured: "pIC50"
  experimental-value: 6.47
- molecule: "COc1cc(C(=O)NC(c2ccccc2Cl)c2nc3ccccc3n2C)ccc1-n1cnc(C)c1 (centres unmarked)"
  subject-of-test: "production of amyloid beta protein Aβ(1-42) in human WT-APP overexpressing CHO cells"
  quantity-measured: "pIC50"
  experimental-value: 6.20
- molecule: "COc1cc(C(=O)NCc2nc(-c3ccc(C(F)(F)F)c(F)c3)no2)ccc1-n1cnc(C)c1"
  subject-of-test: "production of amyloid beta protein Aβ(1-42) in human WT-APP overexpressing CHO cells"
  quantity-measured: "pIC50"
  experimental-value: 6.21
- molecule: "COc1cc(C(=O)NCC2(c3ccc(C(F)(F)F)cc3)CCOCC2)ccc1-n1cnc(C)c1"
  subject-of-test: "production of amyloid beta protein Aβ(1-42) in human WT-APP overexpressing CHO cells"
  quantity-measured: "pIC50"
  experimental-value: 6.73
- molecule: "COc1cc(C(=O)N(C)Cc2cccc(C(F)(F)F)c2)ccc1-n1cnc(C)c1"
  subject-of-test: "production of amyloid beta protein Aβ(1-42) in human WT-APP overexpressing CHO cells"
  quantity-measured: "pIC50"
  experimental-value: 6.00
- molecule: "COc1cc(C(=O)NCc2ccc(C(F)(F)F)c(F)c2)ccc1-n1cnc(C)c1"
  subject-of-test: "production of amyloid beta protein Aβ(1-42) in human WT-APP overexpressing CHO cells"
  quantity-measured: "pIC50"
  experimental-value: 6.29

* * *

System: production of amyloid beta protein Aβ(1-42) in human WT-APP overexpressing CHO cells;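 further: Aβ(1-42) released into conditioned medium captured by ELISA after roughly 24 h compound exposure, vehicle and inhibitor controls defining maximal and minimal inhibition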
condition-summary: read-out: Aβ 42 IC50; Geometric mean of 2-8 determinations; human WT-APP overexpressing CHO cells
Where a name gives a salt, the structure may show the parent alone.
quantity-measured: IC50 (nM)

- molecule: "COc1cc(C(=O)NCCc2c(C)[nH]c3ccccc23)ccc1-n1cnc(C)c1 [Example 117]"
  experimental-value: 828
- molecule: "COc1cccc(C[C@@H]2CCC[C@@H]2NC(=O)c2ccc(-n3cnc(C)c3)c(OC)c2)c1 [Example 63]"
  experimental-value: 391
- molecule: "COc1cc(C(=O)NCC2(c3ccc(C(F)(F)F)cc3)CCCC2)ccc1-n1cnc(C)c1 [Example 33, formic acid salt]"
  experimental-value: 139
- molecule: "COc1cc(C(=O)NCc2csc(-c3cccs3)n2)ccc1-n1cnc(C)c1 [Example 44]"
  experimental-value: 575
- molecule: "COc1cc(C(=O)NCC(CO)c2cccc(C(F)(F)F)c2)ccc1-n1cnc(C)c1 (centres unmarked) [Example 35]"
  experimental-value: 910
- molecule: "COc1cc(C(=O)N[C@@H](C)c2cccc(-c3ccccc3)c2)ccc1-n1cnc(C)c1 [Example 126]"
  experimental-value: 492
- molecule: "COc1cc(C(=O)N[C@@H]2CCC[C@@H]2Cc2ccccc2)ccc1-n1cnc(C)c1 [Example 72]"
  experimental-value: 442
- molecule: "COc1cc(C(=O)NCC2CCCC2)ccc1-n1cnc(C)c1 [Example 47]"
  experimental-value: 1200
